// data source = PubChem BioAssay (NCI)

Test system: RPMI-8226 leukemia
TEST DETAILS: NCI tumour cell line growth inhibition, 48 h
Measured TGI accompanies every entry in the list below.

Some compounds with recorded TGI:
1) O=[N+]([O-])c1cccc(C2N3CCCCC3[C@@H]3c4[nH]c5ccccc5c4CCN23)c1 (stereo partly specified): > 100 µM
2) COc1nc(C)nc2sc3c(c12)CCCC3: > 100 µM
3) Nc1nc(Cl)c(N)c(NCC2(CO)CCC2)n1: > 100 µM
4) CCOC(=O)NNC(=O)C1CSC(c2ccccc2)N1C(C)=O (stereo unspecified): > 100 µM
5) C[C@]12C[C@H](c3ccccc3)Nc3ccccc3N1C(c1ccccc1)=NO2: > 100 µM

// below: TGI requested for another compound
Q) Tell me TGI reported for CSc1nc(C)c2c(n1)SCC2
A) > 10 µM

====

# TGI per entry
Tested on: SR leukemia
TEST DETAILS: NCI tumour cell line growth inhibition, 48 h

1) C=C1C(=O)C23CC1C[C@H](OC(C)=O)[C@H]2C1(C)C(OC(C)=O)C[C@H](O)C(C)(C)[C@H]1C(=O)[C@@H]3OC(C)=O (some centres undefined): > 24.7 µM
2) COc1ccc(-c2onc(-c3ccc([N+](=O)[O-])cc3)c2C2=NCCN2)cc1: > 100 µM
3) Nc1ccc(N(S(=O)(=O)c2ccccc2)S(=O)(=O)c2ccccc2)c(Cl)c1: > 100 µM

Let us examine a further case.
Q) Fill in reported TGI for this entry: COc1cc(OC)c(/C=C/S(=O)(=O)Cc2cnc(OC)c(N)c2)c(OC)c1
A) > 100 µM

====

# reported TGI; entries follow
System: OVCAR-3 ovarian
TEST DETAILS: NCI tumour cell line growth inhibition, 48 h

Solved cases (2 shown):
1. O=C1c2ccccc2C(=O)N1CCCSc1ccccc1: > 100 µM
2. CC(=O)O[C@@H]1CC[C@@]2(C)C(CC[C@H]3[C@@H]4CC[C@H]([C@H](C)CCc5nc6ccc(C)cc6[nH]5)[C@@]4(C)CC[C@@H]32)C1 (stereo partly drawn): > 100 µM

Q) Supply TGI value. Item: Cc1ccc2nc(CN3CCCC(O)C3)cc(=O)n2c1 (stereo not drawn)
A) > 100 µM

====

Each entry below carries its recorded TGI.
Test system: LOX IMVI melanoma
TEST DETAILS: NCI tumour cell line growth inhibition, 48 h

1) CC(C)CS(=O)(=O)/C(=C(\c1ccc(Br)cc1)S(=O)(=O)CC(C)C)c1ccc(Br)cc1: > 100 µM
2) COc1cc(OCc2nc3ccccc3n3cccc23)cc(OC)c1OC: > 100 µM

Q) Read the entry Cn1ccnc1CC(C)(O)c1ccccc1 (stereo not drawn) and write its reported TGI.
A) > 100 µM

====

Test system: SK-MEL-28 melanoma
TEST DETAILS: NCI tumour cell line growth inhibition, 48 h
Below is a list of entries, each paired with its recorded TGI value.

1) CC(C)=CCC[C@@H](C)C1=C(O)C(O)C(C)=C2N=C(c3ccccc3)C(=O)OC21 (stereo not given in full): > 25 µM

Q) Item ClC1(Cl)C(c2ccccc2)C1c1ccccc1 (stereo not given) : provide TGI
A) > 100 µM

Q) Answer with reported TGI of COc1c2nc(CCl)[nH]c(=O)c2c(OC)c2nc(CCl)[nH]c(=O)c12
A) > 100 µM

Q) Given the compound COc1nc(C)nc2sc3c(c12)CCCC3 , write its reported TGI.
A) > 100 µM

Q) Supply TGI value. Item: CC1C[C@@]2(c3ccccc3)C(=O)CCC[C@H]2N1 (stereo not given in full)
A) > 100 µM

====

Tested on: UO-31 renal
TEST DETAILS: NCI tumour cell line growth inhibition, 48 h
Measured TGI, listed per entry.

Illustrative cases are given below, each with its answer.
1. CC1=C(C(=O)Nc2ccccc2C)C(c2ccc(Cl)c(Cl)c2)C(C(=O)Nc2ccccc2C)=C(C)N1: > 100 µM
2. COc1cc(/C=C(\C#N)c2nc3ccccc3o2)ccc1O: 85.9 µM
3. COc1cc(S(=O)(=O)Nc2nc(-c3ccc(N4C(=O)C(CC(=O)O)SC4c4ccccc4O)cc3)cs2)ccc1Cl (stereo unspecified): > 100 µM
4. Cc1ccc(-n2cnc3c(N)nc(N)nc32)cc1: > 100 µM
5. OC(CCN1CCCCC1)(c1ccccc1)c1ccccc1: > 100 µM
6. CN1CCC2(CC1)SC[C@H]1C(=O)N(c3ccc(Cl)cc3)C(=O)N12: > 100 µM
7. COc1ccc(OC)c2sc(N3C(=O)/C(=C/c4ccc(Cl)cc4)N=C3c3ccccc3)nc12: > 100 µM
8. COC(=O)C(C)NP(=O)(N1CC1)N1CC1 (stereo unspecified): > 100 µM
9. Cc1cc([C@H](C#N)c2nc3ccccc3[nH]2)nc(Cl)n1: > 100 µM
10. COc1ccc(Nc2nnc(CCCCCCCCc3nnc(Nc4ccc(OC)cc4)o3)o2)cc1: > 100 µM

Q) Quick one: give measured TGI for O=C1Nc2ccc(C(=O)c3ccco3)cc2/C1=C/c1cc(Cl)c(O)c(Cl)c1
A) 11.5 µM

Q) Return the recorded TGI value; entry: COC(=O)c1c(O)ccc2c1c1c(n2Cc2ccccc2)C(=O)c2ccccc2C1=O
A) 22.1 µM

Q) Write down TGI measured for item COc1cc(C(=O)/C(C)=C/c2c[nH]c3ccccc23)cc(OC)c1OC
A) > 100 µM

Q) Report TGI, nothing else, for this molecule: COC(=O)C1=C(O)C(C(=O)OC)[C@]2(O)[C@H](C(=O)OC)[C@H]1C[C@@H](c1ccc(F)cc1)[C@H]2C(=O)OC (stereo partly specified)
A) 29.1 µM

Q) // fetch TGI given entry COc1ccc2cc(CNCCCCCCCCCCCCNCc3ccc4cc(OC)ccc4c3)ccc2c1
A) 35.8 µM

Q) Entry O=c1c(Oc2ccc(F)cc2F)cc2cnc(NC3CCOCC3)nc2n1C1CCS(=O)(=O)CC1 needs its TGI filled in; supply it.
A) > 25 µM

Q) Give the reported value of TGI for this record: CC(C)=CCCC(C)c1ccc(C)c2c1OCN(CC1CCNCC1)C2 (stereo unspecified)
A) 27.3 µM

Q) Identify the reported TGI for the following entry. Cc1nc2sc(C(=O)Nc3cccc(Cl)c3C)c(N)c2cc1C(=O)/C=C/c1ccccc1
A) 1.1 µM

Q) Supply recorded TGI for O=[N+]([O-])c1cccc(/C=N\NS(=O)(=O)c2ccc(Cl)cc2)c1O here.
A) > 100 µM

Q) Using known records, supply TGI for N#C/C(=C\c1cn(Cc2ccccc2)c2ccccc12)c1nn(-c2ccccc2)c(N)c1C#N
A) 26.5 µM

Q) Provide one value: measured TGI of ClCc1cccc(Cn2cnc3c(NC45CC6CC(CC(C6)C4)C5)ncnc32)c1
A) 31.4 µM

Q) Name the recorded TGI of the item Cc1c(C)c2c(c(N)c1C#N)C(=O)N(CCc1ccccc1)C2=O in your answer.
A) > 100 µM

Q) Please report the measured TGI for COc1ccc2cc(Oc3ccc(Cl)cc3)c(=O)oc2c1
A) > 100 µM

Q) Provide TGI value for the following molecule: C=CCC(N[C@H](CO)c1ccccc1)c1ccc2ccccc2n1 (stereo partly specified)
A) > 100 µM

Q) Provide measured TGI value, entry: O=C1c2ccccc2C(O)(C(=O)O)C1(O)CC=C(Cl)Cl (stereo unspecified)
A) > 125 µM

Q) Hello, please tell me recorded TGI for this one: COc1cc2c[n+](C)c3c4cc5c(cc4ccc3c2cc1OC)OCO5
A) > 100 µM

Q) Quick one: give measured TGI for CCOC(=O)NC(=O)c1cn(CC(=O)NCC(=O)NCC(=O)NCCCN2CCN(CCCNC(=O)CNC(=O)CNC(=O)Cn3cc(C(=O)NC(=O)OCC)c(=O)[nH]c3=O)CC2)c(=O)[nH]c1=O
A) > 100 µM

Q) Determine its reported TGI: O=[n+]1c2ccccc2n([O-])c2ccccc21
A) > 100 µM

Q) For the molecule COc1ccc2c(c1)/C(=C\c1c(C)nc3n1CCS3)C(=O)N2 , give its measured TGI value.
A) > 100 µM

Q) Give a short answer stating reported TGI for CCOC(=O)c1cc(C#N)c(=O)n(/N=C(\C)c2ccncc2)c1O .
A) > 100 µM

Q) Read the entry CCN(CC)C1Oc2cc3c(cc2C(c2ccc(OC)cc2)C1C)OCO3 (stereo unspecified) and write its reported TGI.
A) 64.9 µM

Q) Please list TGI recorded for the molecule CCNC(=O)CCN(C(=O)O)S(=O)(=O)c1ccc(NC(=O)c2ccccc2)cc1
A) > 100 µM

Q) Determine from records and report TGI for CCCCOC(=O)NC(=O)c1cn(CCCOC(=O)CCCCCCCCC(=O)OCCCn2cc(C(=O)NC(=O)OCCCC)c(=O)[nH]c2=O)c(=O)[nH]c1=O
A) > 100 µM

Q) Look up TGI of COc1ccc2nc3c([N+](=O)[O-])ccc4c3c(c2c1)N=CN4CCCN(C)C and report it.
A) 10.7 µM

Q) Output TGI of CC1(C)CN=C(c2ccc3c(c2)Cc2cc(C4=NCC(C)(C)N4)ccc2-3)N1
A) > 100 µM

Q) Could you please provide reported TGI for COc1ccc(/C=N\NC(=O)CN2CCN(c3cc4c(cc3F)c(=O)c(C(=O)N/N=C/c3ccc(OC)c(OC)c3)cn4C3CC3)CC2)cc1OC ? Thanks!
A) > 100 µM
